Procedure details: in vitro
Experimental parameters: human, CC50 (nM)
Readout kind: CC50 (nM)

INSERT INTO assay_data (compound, readout_kind, value_qualifier, observed_result) VALUES
  ('COc1cc2c(OCC#N)c3c(c(-c4ccc5c(c4)OCO5)c2cc1OC)C(=O)OC3 [Compound 17a]', 'CC50', '=', 45200),
  ('C=CCOC(=O)O[C@H]1C(Oc2c3c(c(-c4ccc5c(c4)OCO5)c4cc(OC)c(OC)cc24)C(=O)OC3)OC[C@@H](O)[C@@H]1OC(C)=O (stereo partly shown)', 'CC50', '=', 386),
  ('COc1cc2c(OC3O[C@H](C)[C@@H](OC(C)=O)[C@H](O)[C@H]3O)c3c(c(-c4ccc5c(c4)OCO5)c2cc1OC)C(=O)OC3 (stereo partly drawn) [Compound 27ba, 4″-Acetyl-7-O-β-D-patentiflorin A]', 'CC50', '=', 1160),
  ('COc1cc2c(OCC(=O)OC(C)(C)C)c3c(c(-c4ccc5c(c4)OCO5)c2cc1OC)C(=O)OC3 [Compound 12a]', 'CC50', '>', 10100);

Where do these numbers come from? They come from patent US11638713B2.
